Entries and their growth inhibition
- experiment_summary: NCI Yeast Anticancer Drug Screen. Data for the rad52 strain (AID 147);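 further: 0% = growth of vehicle-treated control cultures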
- test_parameters: S. cerevisiae rad52 mutant growth inhibition; at 1.2 µM; active compounds read high
This is part of a sample that, as a whole, favours compounds with a hit. Of some 79,000 tested, about 15% had one in any assay.
API: value field is a number in %; no unit string.

So what does the record say about growth inhibition for Cc1c2ccnc(C(=O)NCCN(C)C)c2cc2c3cc(O)ccc3n(C)c12 ?
2

So what does the record say about growth inhibition for CN(C)CCCCN1c2ccccc2Sc2ccc(N=[N+]=[N-])cc21 ?
29

---

- experiment_summary: NCI Yeast Anticancer Drug Screen. Data for the rad50 strain (AID 155);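 further: 0% = growth of vehicle-only cultures of the same strain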
- test_parameters: S. cerevisiae rad50 strain growth inhibition; at 50.0 µM
This is part of a sample that, as a whole, favours compounds with a hit. Of some 79,000 tested, about 15% had one in any assay. The source made the active and inactive calls. Cut-off read from the data, not from the text of the source: active = growth inhibition above about 70%; inactive = the rest.
Tick one outcome: active, inactive

| compound | class_assignment |
| --- | --- |
| Cc1ccc(NC(c2ccccc2)c2ccc3cccnc3c2O)cc1 (configuration not stated) | inactive |
| CC1(C)CC(=O)C(/C=N/c2nc(-c3ccccc3)cs2)=C(O)C1 | active |
| CCCCN(CCCC)CCC(O)c1cc2c(Cl)cc(Cl)cc2c2cc(C(F)(F)F)ccc12 (configuration not stated) | active |
| NC1CCCCC1N.Nc1c(N=Nc2ccc(-c3ccc(N=Nc4cc(S(=O)(=O)[O-])c5ccccc5c4N)cc3)cc2)cc(S(=O)(=O)[O-])c2ccccc12.[OH3+].[OH3+].[Pt+4] | active |
| CCCCOCn1c(=O)[nH]c(=O)c2cc(Br)ccc21 | inactive |
| Cc1ccc(NCCNCCO)c2c(=O)c3cc(O)ccc3sc12 | active |
| O=C1c2cccnc2C(=O)C2C3C=CC(C3)C12 (configuration not stated) | active |
| O=C1c2ccccc2C(=O)c2cc(CCl)ccc21 | inactive |
| CN(C)C=NC1CCC(C(C)(C)C)CC1 (configuration not stated) | active |
| CCc1ccc2c(c1)N(CC(C)CN(C)C)c1ccccc1S2 (configuration not stated) | inactive |

Per the assay record, what outcome was assigned to COC(=O)Nc1cn2ccc(C(Cl)=C(Cl)Cl)cc2n1 ?
inactive

Per the assay record, what outcome was assigned to COC(=O)CC1(O)C(/C=C/c2ccccc2)C(C(=O)OC)C(=O)C(C(=O)OC)C1C(=O)OC (configuration not stated) ?
inactive

Per the assay record, what outcome was assigned to CC(=O)OC1CC2C(C)(C)C(=O)C=C[C@]2(C)C2CCC3(C)C(=CCC3[C@H](CO)C[C@H](O)C(=O)C(C)(C)O)[C@]12C (some centres not stated) ?
inactive

Per the assay record, what outcome was assigned to O=[N+]([O-])c1cc(Cl)cnc1Br ?
active

Per the assay record, what outcome was assigned to CN(C)c1ccc(N=Nc2ccncc2)cc1 ?
active

Per the assay record, what outcome was assigned to CCc1c(Cl)c(C)cc(O)c1Cl ?
active

Per the assay record, what outcome was assigned to O=C(O)c1cc2ccccc2c2c1C(=O)c1ccccc1-2 ?
active

Per the assay record, what outcome was assigned to Cc1nc(Nc2ccccc2[N+](=O)[O-])sc1C(=O)CC(=O)C(=O)Nc1c(C(C)C)cccc1C(C)C ?
inactive

Per the assay record, what outcome was assigned to C[Si](C)(C)/C=C/CCNC(C#N)c1ccccc1 (configuration not stated) ?
active
